# assayed.target: MYT1 protein (Homo sapiens (Human))
# assay.name: MYT1 kinase activity inhibition test (ELISA, phosphorylation of Y15 of CDK1)
# Type: biochemical
# measurement.conditions: phosphorylation level of Y15 of CDK1 protein caused by MYT1 protein, 60 minutes
Property: pIC50; scope: individual molecules
Please note pIC50 is a logarithmic value: minus log10 of concentration in mol/L. Answer with that number alone.

> print(dat)
                                smiles.text  result
1  Nc1c(-c2ccc(F)c3[nH]ncc23)c2cc(C3CC3)c3ncccc3c2[nH]c1=O    9.60
2  Nc1c(-c2ccc(F)c3[nH]ncc23)c2cc([C@H]3CC[C@@H](O)CC3)c3ncccc3c2[nH]c1=O    7.96
3  Nc1c(-c2cccc3[nH]ncc23)c2ccc3ccccc3c2[nH]c1=O    8.19

Let us examine a further case.
Request: Indicate its recorded pIC50; the molecule in question is Nc1c(-c2ccc(Cl)c3[nH]ncc23)c2cc(Cl)c(Br)cc2[nH]c1=O
Result: 9.28

###

Property: IC50; scope: individual molecules
# assayed.target: MYT1 protein (Homo sapiens (Human), UniProt Q99640)
# Sequence (Q99640 whole entry): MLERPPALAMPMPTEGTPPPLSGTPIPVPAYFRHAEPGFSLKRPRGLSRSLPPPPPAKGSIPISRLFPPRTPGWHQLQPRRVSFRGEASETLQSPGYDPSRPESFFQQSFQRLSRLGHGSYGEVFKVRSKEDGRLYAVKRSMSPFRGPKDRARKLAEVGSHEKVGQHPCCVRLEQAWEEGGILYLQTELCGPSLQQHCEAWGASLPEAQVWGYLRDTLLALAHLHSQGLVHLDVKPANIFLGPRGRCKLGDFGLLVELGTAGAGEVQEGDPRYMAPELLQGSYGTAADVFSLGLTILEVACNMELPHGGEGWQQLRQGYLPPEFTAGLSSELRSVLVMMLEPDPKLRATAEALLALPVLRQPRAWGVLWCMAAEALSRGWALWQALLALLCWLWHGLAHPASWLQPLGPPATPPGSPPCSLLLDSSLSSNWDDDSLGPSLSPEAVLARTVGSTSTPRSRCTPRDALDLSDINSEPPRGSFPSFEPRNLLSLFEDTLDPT
# assay.name: Test for binding to ATP binding site of MYT1 (Kinase Tracer 178 / Eu-Anti-GST antibody TR-FRET)
# measurement.conditions: ATP binding site of MYT1, 30 minutes at room temperature

> print(dat)
                                   molecule  quantity.name  result
1  Nc1c(-c2ccc(F)c3[nH]ncc23)c2cc(C3CC3)c3cccnc3c2[nH]c1=O [Compound D2]           IC50    4 nM

Request: Indicate its recorded IC50; the molecule in question is CS(=O)(=O)Nc1cc2c(-c3ccc(F)c4[nH]ncc34)c(N)c(=O)[nH]c2c2nccnc12 [Compound G5]
Result: 9.3 nM

Request: Indicate its recorded IC50; the molecule in question is CC[C@H](C)Oc1cc2c(-c3ccc(F)c4[nH]ncc34)c(N)c(=O)[nH]c2c2cccnc12 [Compound C34]
Result: 3.7 nM

Request: Indicate its recorded IC50; the molecule in question is Nc1c(-c2ccc(Cl)c3[nH]ncc23)c2cc(Cl)cc(C3CC3)c2[nH]c1=O [Compound A24]
Result: 110 nM

###

Property: pIC50; scope: individual molecules
# assayed.target: UniProt:Q99640
# assay.name: Test for binding to ATP binding site of MYT1 (Kinase Tracer 178 / Eu-Anti-GST antibody TR-FRET)
# measurement.conditions: ATP binding site of MYT1, 30 minutes at room temperature
# Procedure: The binding capacity of each compound to the ATP binding site of MYT1 Kinase protein was evaluated. […] Thereafter, fluorescence wavelengths of 665 nm and 615 nm generated by irradiation with excitation light of 340 nm were detected using Envision (manufactured by PerkinElmer). The proportion of Tracer bound to MYT1 protein was calculated for every condition by dividing the intensity at the fluorescence wavelength of 665 nm by the intensity at the fluorescence wavelength of 615 nm.
Please note pIC50 is a logarithmic value: minus log10 of concentration in mol/L. Answer with that number alone.

> print(dat)
                                   molecule  quantity.name  result
1  CN1CC(c2ccc3[nH]c(=O)c(N)c(-c4ccc(Cl)c5[nH]ncc45)c3c2)C1 [Compound A39]          pIC50    7.64
2  Nc1c(-c2ccc(F)c3[nH]ncc23)c2cc(F)c3ccccc3c2[nH]c1=O [Compound B35]          pIC50    8.43
3  N#C[C@H]1C[C@H](Oc2cc3c(-c4ccc(F)c5[nH]ncc45)c(N)c(=O)[nH]c3c3nccnc23)C1 [Compound G12]          pIC50    9.02

Request: Check UniProt:Q99640 data and give pIC50 for CCN1CCC(c2cc3c(-c4ccc(F)c5[nH]ncc45)c(N)c(=O)[nH]c3c3ncccc23)CC1 [Compound D26] .
Result: 8.48

Request: Check UniProt:Q99640 data and give pIC50 for Cc1cc2c(-c3cc(F)c(F)c4[nH]ncc34)c(N)c(=O)[nH]c2c2cc(F)cnc12 [Compound F6] .
Result: 8.03
